- Test system: MCF7
- run description: Antiproliferative activity against human MCF7 cells after 48 hrs by MTT assay
- measurement setup: MCF7, 48 h
test readout: pIC50
To interpret pIC50, take it as minus log10 of a concentration measured in moles per litre.

{"columns": ["sample smiles", "system under test", "pIC50"],
 "data": [
  ["O=c1[nH]cc(F)c(=O)[nH]1", "MCF7", 4.15]
]}

Kindly consider the entry below.
Reported pIC50, compound CC(C)C[C@H](NC(=O)[C@@H](O)[C@H](N)Cc1ccccc1)C(=O)OCn1cc(F)c(=O)[nH]c1=O.Cl : ____ 4.72

----------
- Test system: HEL
- run description: cells
- measurement setup: Homo sapiens, 48 h
- Description: Antiproliferative activity against human HEL cells after 48 hrs by MTT assay
Reported pIC50 values for the following compounds.
To interpret pIC50, take it as minus log10 of a concentration measured in moles per litre.

Solved entries (count: 2):
{"columns": ["sample smiles", "system under test", "pIC50"],
 "data": [
  ["CC(C)C[C@H](NC(=O)[C@@H](O)[C@H](N)Cc1ccccc1)C(=O)OCn1cc(F)c(=O)[nH]c1=O.Cl", "HEL", 5.04],
  ["O=c1[nH]cc(F)c(=O)[nH]1", "HEL", 4.49]
]}

Kindly consider the entry below.
Reported pIC50, compound CC(C)C[C@H](NC(=O)[C@@H](O)[C@H](N)Cc1ccccc1)C(=O)O : ____ 3.38

These data points were gathered from ChEMBL document CHEMBL4715747.
